Source listed as the supplement of paper PMC4723716.

# viability index listing for each entry below
Test system: Plasmodium falciparum NF54 stage V gametocytes
Test: viability index relative to DMSO control (fraction); higher = less gametocyte killing
Conditions: 2.5 µM, library set: Broad Institute DOS, incubation time: 72 h
Whole data set: some 9,900 compounds, median “viability index relative to DMSO control” near 1, cut for the lowest 2% near 0.85. Many of the other results were omitted from the sample, so the lowest values are more common in it than they were.

# Cpd smiles, Endpoint result
measured = [
    ("N#C[C@H]1[C@@H](c2ccccc2-c2ccccc2F)[C@@H](CO)N1C(=O)c1cccc(F)c1", 1.16),
]

For this molecule ( `Cc1noc(C)c1S(=O)(=O)N(C)C[C@H]1OCc2cn(nn2)CCCC(=O)N([C@H](C)CO)C[C@@H]1C` ), measured viability index is 0.952

For this molecule ( `COc1ccc(S(=O)(=O)Nc2ccc3c(c2)CC(=O)N([C@@H](C)CO)C[C@@H](C)[C@@H](CN(C)Cc2ccc(C(=O)Nc4ccccc4N)cc2)O3)cc1` ), measured viability index is 0.844

For this molecule ( `C/C=C/c1ccc([C@H]2[C@@H](CO)N(S(C)(=O)=O)[C@@H]2CN(C(C)=O)C(C)C)cc1` ), measured viability index is 0.957

For this molecule ( `C/C=C/c1ccc([C@H]2[C@@H](CNC(=O)CC3CC3)N(C(=O)CC)[C@H]2CO)cc1` ), measured viability index is 1.05

For this molecule ( `Cc1noc(C)c1S(=O)(=O)Nc1ccc2c(c1)CC(=O)N([C@H](C)CO)C[C@H](C)[C@H](CN(C)Cc1ccc(Oc3ccccc3)cc1)O2` ), measured viability index is 0.981

For this molecule ( `Cc1noc(C)c1NC(=O)N[C@H]1C=C[C@H](CC(=O)Nc2ccc(-c3ccccc3)cc2)O[C@H]1CO` ), measured viability index is 1.07

For this molecule ( `CO[C@@H]1CN(C)C(=O)c2ccc(NC(=O)NC(C)C)cc2OC[C@@H](C)N(Cc2ccc(-c3ccccn3)cc2)C[C@H]1C` ), measured viability index is 1.03

###

# viability index listing for each entry below
Tested on: Plasmodium falciparum NF54 stage V gametocytes
Assay: viability index relative to DMSO control (fraction); higher = less gametocyte killing
Settings: 2.5 µM, library set: Broad Institute DOS, incubation time: 72 h
In all, about 9,900 compounds were measured (“viability index relative to DMSO control”: median about 1, lowest 2% from about 0.85 on). Many of the other results were omitted from the sample, so the lowest values are more common in it than they were.
// response body must contain only the number

Look over these answered cases.
# Cpd smiles, Endpoint result
data = [
    ("O=C(CCN1CCCCC1)N[C@H]1CC[C@@H](CCn2cc(-c3cccc(F)c3)nn2)O[C@H]1CO", 1.07),
    ("O=C(c1ccccc1)N1CC(=O)N2[C@H](CO)[C@@H](c3ccc(-c4ccccc4)cc3)[C@H]2C1", 1.02),
]

For this molecule ( `O=C(c1cnccn1)N1CC(=O)N2[C@@H](CO)[C@@H](c3ccc(-c4cccc(F)c4)cc3)[C@@H]2C1` ), measured viability index is 1.02

For this molecule ( `O=C(c1cnccn1)N1CC(=O)N2[C@@H](CO)[C@H](c3ccc(-c4cccc(F)c4)cc3)[C@@H]2C1` ), measured viability index is 1

For this molecule ( `O=C(c1cnccn1)N1CC(=O)N2[C@H](C1)[C@@H](c1ccc(-c3cccc(F)c3)cc1)[C@@H]2CO` ), measured viability index is 1.02

For this molecule ( `N#C[C@H]1[C@@H](c2ccccc2)[C@@H](CO)N1C(=O)c1ccc2c(c1)OCO2` ), measured viability index is 1.08
